- targetOrSystem: TNKS2 (Homo sapiens, UniProt Q9H2K2)
- Sequence (Q9H2K2 1-1166): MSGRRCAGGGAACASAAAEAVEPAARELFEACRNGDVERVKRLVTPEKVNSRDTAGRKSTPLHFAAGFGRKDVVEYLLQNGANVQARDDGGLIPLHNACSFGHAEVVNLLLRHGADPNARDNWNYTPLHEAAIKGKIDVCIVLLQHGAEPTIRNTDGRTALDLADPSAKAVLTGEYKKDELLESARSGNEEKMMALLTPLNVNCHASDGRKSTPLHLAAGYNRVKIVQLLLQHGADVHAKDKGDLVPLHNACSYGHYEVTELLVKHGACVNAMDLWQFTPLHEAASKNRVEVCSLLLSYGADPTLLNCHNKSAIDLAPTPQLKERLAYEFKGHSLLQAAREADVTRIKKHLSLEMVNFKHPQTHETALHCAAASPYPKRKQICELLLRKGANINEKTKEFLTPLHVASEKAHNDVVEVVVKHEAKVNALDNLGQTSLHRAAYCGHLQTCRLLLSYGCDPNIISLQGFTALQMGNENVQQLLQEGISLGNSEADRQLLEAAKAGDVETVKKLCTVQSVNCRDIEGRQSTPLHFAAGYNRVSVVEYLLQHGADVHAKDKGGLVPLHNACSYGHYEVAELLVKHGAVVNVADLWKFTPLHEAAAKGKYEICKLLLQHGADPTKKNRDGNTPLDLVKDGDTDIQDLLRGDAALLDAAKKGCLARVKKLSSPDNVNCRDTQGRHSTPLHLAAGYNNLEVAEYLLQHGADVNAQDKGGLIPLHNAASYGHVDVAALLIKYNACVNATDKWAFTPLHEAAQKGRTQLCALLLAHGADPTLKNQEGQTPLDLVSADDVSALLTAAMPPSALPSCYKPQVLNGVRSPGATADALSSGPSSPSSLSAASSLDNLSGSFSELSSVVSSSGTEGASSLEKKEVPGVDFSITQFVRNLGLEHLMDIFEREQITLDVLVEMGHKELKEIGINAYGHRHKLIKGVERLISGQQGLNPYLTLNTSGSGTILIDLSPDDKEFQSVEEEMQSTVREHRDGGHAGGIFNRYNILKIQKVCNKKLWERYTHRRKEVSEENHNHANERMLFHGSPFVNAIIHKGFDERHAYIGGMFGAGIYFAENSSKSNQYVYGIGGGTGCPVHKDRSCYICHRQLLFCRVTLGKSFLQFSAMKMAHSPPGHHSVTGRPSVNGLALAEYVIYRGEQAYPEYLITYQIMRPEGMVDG
assayEndpoint: IC50 (nM)
Supply the numeric figure in nM, leaving out any unit text.

Query: # query: IC50 of entry NC(=O)c1nc[nH]c1C(=O)N[C@H]1CC[C@@]2(CCN(c3ccccc3Cl)C2=O)CC1 [Example 261]
Result: 17

Query: Item under review: COC(C)(C)CNC(=O)c1nc[nH]c1C(=O)N[C@H]1CC[C@H](C(=O)Nc2cc(C(F)(F)F)ccc2Cl)CC1 [Example 144] . Reported IC50?
Result: 230

Query: For the compound Cn1cc(C(=O)N[C@H]2CC[C@@]3(CCN(c4ccc(F)cc4Cl)C3=O)CC2)c2ncccc21 [Example 343] , what IC50 is on record?
Result: 16

Query: I have this compound here, CNC(=O)c1nc[nH]c1C(=O)N[C@H]1CC[C@@]2(CCCN(c3ccc(F)cc3Cl)C2=O)CC1 [Example 159] , and I need its recorded IC50.
Result: 130

Query: If you can, please state the reported IC50 value of Cc1c(C(C)N(C)C)cnc2c(C(=O)N[C@H]3CC[C@@]4(CCN(c5ccc(F)cc5Cl)C4=O)CC3)cnn12 (mixture of isomers) [Example 358] .
Result: 41

Query: May I ask what IC50 has been recorded for O=C(N[C@H]1CC[C@@]2(CCN(c3ccc(F)cc3Cl)C2=O)CC1)c1cnn2cc(CCO)cnc12 [Example 214] ?
Result: 5.3

Query: Looking for the measured IC50 of O=C(N[C@H]1CC[C@H](C(=O)Nc2ccncc2Cl)CC1)c1cnn2cccnc12 [Example 105] , can you help?
Result: 120

* * *

- targetOrSystem: UniProtKB Q9H2K2
- Sequence (Q9H2K2 1-1166): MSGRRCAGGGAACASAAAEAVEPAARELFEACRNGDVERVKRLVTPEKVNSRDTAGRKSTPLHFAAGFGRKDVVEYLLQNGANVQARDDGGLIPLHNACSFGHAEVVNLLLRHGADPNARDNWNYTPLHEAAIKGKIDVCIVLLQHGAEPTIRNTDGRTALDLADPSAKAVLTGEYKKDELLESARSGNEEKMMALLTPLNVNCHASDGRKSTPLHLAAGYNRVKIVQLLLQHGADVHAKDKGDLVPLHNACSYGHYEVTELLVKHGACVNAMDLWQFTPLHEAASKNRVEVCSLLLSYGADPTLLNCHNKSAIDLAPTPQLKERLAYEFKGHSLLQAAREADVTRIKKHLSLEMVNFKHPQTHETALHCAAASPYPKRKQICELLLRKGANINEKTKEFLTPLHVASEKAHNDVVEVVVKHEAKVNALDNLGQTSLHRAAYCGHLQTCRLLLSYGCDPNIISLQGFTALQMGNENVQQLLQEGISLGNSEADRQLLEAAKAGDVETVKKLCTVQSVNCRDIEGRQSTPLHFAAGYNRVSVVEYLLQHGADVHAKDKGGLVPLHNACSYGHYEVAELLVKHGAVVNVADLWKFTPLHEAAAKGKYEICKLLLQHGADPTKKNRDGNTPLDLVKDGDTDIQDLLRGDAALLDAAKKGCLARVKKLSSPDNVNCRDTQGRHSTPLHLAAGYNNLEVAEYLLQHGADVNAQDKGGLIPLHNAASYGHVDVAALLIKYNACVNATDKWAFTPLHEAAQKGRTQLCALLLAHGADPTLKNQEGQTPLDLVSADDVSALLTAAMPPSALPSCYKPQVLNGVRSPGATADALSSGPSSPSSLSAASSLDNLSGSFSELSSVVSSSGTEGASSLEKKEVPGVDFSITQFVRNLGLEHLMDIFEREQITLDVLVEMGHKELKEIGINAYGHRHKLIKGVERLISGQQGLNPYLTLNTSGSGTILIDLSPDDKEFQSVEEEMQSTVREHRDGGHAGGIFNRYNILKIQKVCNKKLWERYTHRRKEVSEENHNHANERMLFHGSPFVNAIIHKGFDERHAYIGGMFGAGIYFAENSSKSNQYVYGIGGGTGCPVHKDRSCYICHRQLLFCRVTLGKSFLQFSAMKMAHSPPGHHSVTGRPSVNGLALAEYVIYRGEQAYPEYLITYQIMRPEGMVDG
Consider the following partition of reported IC50 into named classes: low: < 30 nM; mid: ≥ 30 nM and < 200 nM; high: ≥ 200 nM

Query: Field: class (IC50) — entry: Cc1cc(N2CCC[C@]3(CC[C@@H](NC(=O)c4[nH]cnc4C(=O)N4CC(F)C4)CC3)C2=O)c(Cl)cc1F
Result: mid

Query: Field: class (IC50) — entry: Cc1cc(N2CC[C@]3(CC[C@@H](NC(=O)c4[nH]cnc4C(=O)NC4CC4)CC3)C2=O)c(Cl)cc1F
Result: low

Query: Category of O=C(N[C@H]1CC[C@@]2(CCN(c3ccccc3)C2=O)CC1)c1cnc2cccnn12 :
Result: high

Query: Kindly state the category for this compound: CC(C)(O)CNC(=O)c1nc[nH]c1C(=O)N[C@H]1CC[C@H](C(=O)Nc2cc(N3CCOCC3)ccc2Cl)CC1
Result: high

Query: # classify by IC50 band: O=C(NCCN1CCCCC1)c1nc[nH]c1C(=O)N[C@H]1CC[C@@]2(CCN(c3ccc(F)cc3Cl)C2=O)CC1
Result: low

Query: Lab log: Cc1cc(C)n2ncc(C(=O)N[C@H]3CC[C@@]4(CCCN(c5cc(C)c(F)cc5Cl)C4=O)CC3)c2n1 — assign IC50 category
Result: mid

Query: Entry CNC(=O)c1[nH]cnc1C(=O)NC12CCC(C(=O)Nc3ccc(F)cc3Cl)(CC1)CC2 belongs to which category?
Result: mid

Query: Sort into band: O=C(NCCN1CCCCC1)c1nc[nH]c1C(=O)N[C@H]1CC[C@H](C(=O)Nc2ccc(F)cc2Cl)CC1
Result: high

Query: Would you mind sorting CC(C)(O)CNC(=O)c1nc[nH]c1C(=O)N[C@H]1CC[C@H](C(=O)Nc2ccc(F)cc2Cl)CC1 into the appropriate category?
Result: mid

Query: Exercise: read the entry Cc1cc(N2CCC[C@]3(CC[C@@H](NC(=O)c4cnn5cccnc45)CC3)C2=O)c(Cl)cc1F and state which class it falls under.
Result: mid

Query: Class? Entry: O=C(N[C@H]1CC[C@@]2(CCN(c3ccc(F)cc3Cl)C2=O)CC1)c1cnn2ccc(C(F)F)nc12
Result: low

Query: Note: place this compound into its band. Item: O=C(NC1CC1)c1nc[nH]c1C(=O)N[C@H]1CC[C@]2(CCN(c3ccc(F)cc3Cl)C2=O)CC1
Result: high

Query: Band for COCC(C)NC(=O)c1nc[nH]c1C(=O)N[C@H]1CC[C@H](C(=O)Nc2cc(C(F)(F)F)ccc2Cl)CC1 (stereo partly shown) ?
Result: mid

Query: For this compound, which bin applies? Cc1c(C(C)N(C)C)cnc2c(C(=O)N[C@H]3CC[C@H](C(=O)Nc4ccc(F)cc4Cl)CC3)cnn12 (single isomer, unassigned) [Example 57]
Result: mid

Query: Kindly identify the class of CN(C)C(=O)c1nc[nH]c1C(=O)N[C@H]1CC[C@H](C(=O)Nc2ccc(F)cc2Cl)CC1 .
Result: high

Query: // return the class label for CNC(=O)c1nc[nH]c1C(=O)N[C@H]1CC[C@@]2(CCN(c3cc(C)c(F)cc3Cl)C2=O)CC1
Result: low

Query: In plain terms, what class is COC(=O)c1cc(C)nc2c(C(=O)N[C@H]3CC[C@H](C(=O)Nc4c(F)cc(F)cc4Cl)CC3)cnn12 ?
Result: mid

Query: Could you place CNC(=O)c1nc[nH]c1C(=O)N[C@H]1CC[C@H](C(=O)Nc2ccc(C)cc2Cl)CC1 in its proper category? Many thanks.
Result: mid

Query: Into which bin does this compound go? COCC(C)NC(=O)c1nc[nH]c1C(=O)N[C@H]1CC[C@H](C(=O)Nc2cc(N3CCOCC3)ccc2Cl)CC1 (stereo partly shown)
Result: high

Query: // bin(item) where item = O=C(NC1CCC(F)(C(=O)Nc2ccc(F)cc2Cl)CC1)c1cnn2cccnc12 (single isomer, unassigned)
Result: high

Query: Band assignment needed for Cc1cc(N2CC[C@]3(CC[C@@H](NC(=O)c4[nH]cnc4C(N)=O)CC3)C2=O)c(Cl)cc1F please.
Result: low

Query: Which of the defined bands does the recorded IC50 of Cc1cc(C)n2ncc(C(=O)N[C@H]3CC[C@@]4(CCN(c5ccc(F)cc5Cl)C4=O)CC3)c2n1 sit within?
Result: low

Query: Which category fits this record: CC(C)NCCNC(=O)c1nc[nH]c1C(=O)N[C@H]1CC[C@H](C(=O)Nc2ccc(F)cc2Cl)CC1
Result: mid

Query: Hi there! Could you help me figure out the category for O=C(NC1CCC2(CC1)CCN(c1cc(F)c(F)cc1Cl)C2=O)c1cnn2cccnc12 (single isomer, unassigned; isomer 1) please?
Result: low

Query: Sort CN(c1ccccc1)C(=O)[C@H]1CC[C@H](NC(=O)c2cnn3cccnc23)CC1 into one of the categories.
Result: high

Query: Please classify: CNC(=O)c1nc[nH]c1C(=O)N[C@H]1CC[C@H](C(=O)N(C)c2ccc(F)cc2Cl)CC1
Result: mid

Query: Bin this entry: CNC(=O)c1[nH]cnc1C(=O)NC1CCC(C(=O)Nc2ccc(F)cc2Cl)CC1OC (stereo not shown) [Example 37]
Result: high

Query: Please report the category associated with CNC(=O)c1[nH]cnc1C(=O)N[C@@H]1CC[C@@H](C(=O)Nc2ccc(F)cc2Cl)C[C@H]1OC (racemic) , nothing else.
Result: high

Numbers sourced from patent US20180148418A1.
